Test system: HOP-62 NSCLC
run-description: NCI tumour cell line growth inhibition, 48 h
Reported GI50 values for the following compounds.

# compound-structure, GI50
records = [
    ("OCc1ccc(N(Cc2ccc(F)cc2)CC2CC2)cc1Cl", "3.09 µM"),
    ("COc1ccc2nc3ccccc3c(NCc3ccc(Cl)cc3)c2c1", "1.72 µM"),
    ("O=[N+]([O-])c1ccc2c(c1)C(=NO)c1cc([N+](=O)[O-])ccc1-2", "46.5 µM"),
]

###

System: KM20L2 colon
run-description: NCI tumour cell line growth inhibition, 48 h
measured-endpoint: TGI

# compound, tested-system, measured-endpoint, result
records = [
    ("CCCC(=O)c1c(NOC2OCC(OC(C)=O)C(OC(C)=O)C2OC(C)=O)nc(OC)n(C)c1=O (stereo not drawn)", "KM20L2 colon", "TGI", "> 100 µM"),
    ("O=C1C(=Cc2cccs2)C(=O)N(CCc2ccccc2)S(=O)(=O)N1CCc1ccccc1", "KM20L2 colon", "TGI", "> 50 µM"),
    ("O=C(OCCOC(=O)c1ccc2c(c1)C1(SCCS1)c1ccccc1-2)c1ccc2c(c1)C1(SCCS1)c1ccccc1-2", "KM20L2 colon", "TGI", "> 100 µM"),
]

###

Test system: OVCAR-3 ovarian
run-description: NCI tumour cell line growth inhibition, 48 h; in the data active = GI50 below about 0.43 µM; inactive = the rest
Outcomes: y (active), n (inactive)

# molecule, tested-system, assigned-class
rows = [
    ("Nn1c2c(c3ccccc3c1=O)C(=O)c1ccccc1-2", "OVCAR-3 ovarian", "n"),
    ("CC(=O)N1CCC(Nc2cc(C(=O)NC[C@H](O)CN3CCc4ccccc4C3)ncn2)CC1", "OVCAR-3 ovarian", "n"),
    ("COc1ccc2c(c1)[n+]([O-])c(C#N)c(NC(=O)c1cccs1)[n+]2[O-]", "OVCAR-3 ovarian", "n"),
    ("O=C(N/N=C(\\CN1CCN(c2cc3[nH]cc(C(=O)O)c(=O)c3cc2F)CC1)c1ccc(Cl)cc1)c1ccncc1", "OVCAR-3 ovarian", "n"),
    ("N#Cc1c(Br)n(C2OC(CO)C(O)C2O)c2ncn3ccnc3c12 (configuration not stated)", "OVCAR-3 ovarian", "n"),
    ("Oc1cccc(-c2nc(-c3n[nH]c(=S)n3-c3ccccc3)cc3c2[nH]c2ccccc23)c1", "OVCAR-3 ovarian", "n"),
    ("COc1ccc(N2CCN(C(=O)c3ccc(C(F)(F)F)nc3Nc3cc(Cl)ccc3C)CC2)cc1", "OVCAR-3 ovarian", "n"),
    ("CCCN(CCC)c1ccc(CO)c(Cl)c1", "OVCAR-3 ovarian", "n"),
    ("O=c1ccc2nc(C(F)(F)F)nn(-c3ccccc3)c-2c1", "OVCAR-3 ovarian", "n"),
    ("O=C(Nc1ccc([As]=[As]c2ccc(NC(=O)c3ccccc3)cc2)cc1)c1ccccc1 (configuration not stated)", "OVCAR-3 ovarian", "y"),
    ("O=C(Nc1cccc(Cl)c1)Nc1nccs1", "OVCAR-3 ovarian", "n"),
    ("C=C1C(=O)O[C@H]2[C@H]1CC/C(COC(=O)/C=C\\C(=O)NCc1ccc(Cn3c(=O)sn(CCCI)c3=O)cc1)=C\\CC[C@@]1(C)O[C@@H]21", "OVCAR-3 ovarian", "y"),
]

###

Test system: PC-3 prostate
run-description: NCI tumour cell line growth inhibition, 48 h

# molecule, tested-system, TGI
data = [
    ("CSc1ncnc2c1cnn2Cc1cn(CCCCO)nn1", "PC-3 prostate", "> 100 µM"),
    ("COC(=O)C(Cc1ccc2c(c1)CCCC2)Cc1cc2c(cc1C(O)OC)CCC2 (stereo not drawn)", "PC-3 prostate", "> 100 µM"),
    ("c1ccc(C(NC2CCCCC2NCCNC2CCCCC2NC(c2ccccc2)(c2ccccc2)c2ccccc2)(c2ccccc2)c2ccccc2)cc1 (stereo not drawn)", "PC-3 prostate", "> 100 µM"),
    ("CN(C)CCCn1c2c(c3ccc(-c4ccn[nH]4)cc3c1=O)C(=O)c1ccccc1-2", "PC-3 prostate", "2.72 µM"),
    ("COc1ccc2c(c1)[n+]([O-])c(C#N)c(NC(=O)c1cccs1)[n+]2[O-]", "PC-3 prostate", "> 100 µM"),
    ("Cn1cc(-c2ccc(-c3cn(C)c4ccc(Cl)cc34)[nH]2)c2cc(Cl)ccc21", "PC-3 prostate", "1.72 µM"),
    ("CSC(Cc1ccc2c(c1)Sc1ccccc1O2)=[N+]1CCOCC1", "PC-3 prostate", "> 100 µM"),
    ("C=C1CCc2ccccc2C1=O", "PC-3 prostate", "> 100 µM"),
    ("O=C1N[C@@H]2[C@@H](O)[C@@H](O)[C@H](O)C[C@H]2c2cc3c(c(O)c21)OCO3", "PC-3 prostate", "1.63 µM"),
    ("O=C1O/C(=C\\c2ccc(O)c(Br)c2)C(c2ccc(O)c(Cl)c2)=C1Br", "PC-3 prostate", "32.7 µM"),
    ("COC(=O)C1=CN(CC2=CC(=O)C(C)=CC2=O)C=C(C(=O)OC)C1c1cc(OC)ccc1OC", "PC-3 prostate", "24.7 µM"),
    ("CC(C)(C)c1cc(OCc2nnc3sc(-c4ccc(Cl)cc4)nn23)c(Cl)cc1OCc1nnc2sc(-c3ccc(Cl)cc3)nn12", "PC-3 prostate", "> 100 µM"),
    ("C(=C1c2ccccc2-c2ccccc21)c1ccncc1", "PC-3 prostate", "> 100 µM"),
    ("Cc1ccc(S(=O)(=O)NC(C(=O)O)C(C)C)cc1 (stereo not drawn)", "PC-3 prostate", "> 100 µM"),
    ("Nc1ccc(C(=O)NN2C(=O)[C@H](Cl)C2c2ccc(Cl)cc2)cc1 (stereo partly drawn)", "PC-3 prostate", "3.2 µM"),
    ("CCCCCCCC(=O)SCC/C=C/[C@@H]1CC(=O)NCc2cccc(n2)CN(Cc2ccc3ccccc3c2)CC(=O)N[C@@H](C(C)C)C(=O)O1", "PC-3 prostate", "> 100 µM"),
    ("O=C(Nc1ccc2ncccc2c1)c1cc2c(cc1Cl)Sc1nccn1S2(=O)=O", "PC-3 prostate", "> 100 µM"),
    ("CCCNc1[nH]c(C(=O)c2ccccc2)c(N)c1C(=S)Nc1ccccc1", "PC-3 prostate", "> 100 µM"),
    ("ClC1=C(Cl)C(Cl)(Cl)SS1", "PC-3 prostate", "> 10 µM"),
    ("CC(C)OC(=O)c1cc(NS(=O)(=O)c2ccc3ccccc3c2)cc(C(=O)OC(C)C)c1", "PC-3 prostate", "91.8 µM"),
    ("CC(=O)c1c2c(cc3c1CC1(C3)Cc3cc4c(c(C(=O)O)c3C1)CCCC4)CCCC2 (stereo not drawn) (tested in a mixture with another compound)", "PC-3 prostate", "> 100 µM"),
    ("C[C@]12CCC(=O)CC1CC[C@@H]1C2CC[C@@]2(C)C1CC[C@@H]2OC(=O)CC[Se][Se]CCC(=O)O[C@H]1CCC2[C@@H]3CCC4CC(=O)CC[C@]4(C)C3CC[C@@]21C (stereo partly drawn)", "PC-3 prostate", "8.27 µM"),
    ("COc1ccc2nc3cccc([N+](=O)[O-])c3c(NCCNCCO)c2c1", "PC-3 prostate", "0.13 µM"),
    ("CC(=O)OCCOCn1c2c(c(=O)[nH]c1=O)CCC2", "PC-3 prostate", "> 100 µM"),
    ("Cc1cc(Oc2ccccc2)ccc1Nc1ncnc2ccc(-c3cnc(Cl)c(NS(C)(=O)=O)c3)cc12", "PC-3 prostate", "10.5 µM"),
    ("CCOC(=O)/C(C#N)=C/c1ccc(SCc2ccco2)c([N+](=O)[O-])c1", "PC-3 prostate", "> 100 µM"),
    ("Cc1ccc(Cl)cc1-c1nc(N)nc(Nc2ccc(Br)cc2)n1", "PC-3 prostate", "> 100 µM"),
    ("O=C(Nc1ccc([As]=[As]c2ccc(NC(=O)c3ccccc3)cc2)cc1)c1ccccc1 (stereo not drawn)", "PC-3 prostate", "2.46 µM"),
]

###

Quick reference: TGI of the listed items.
Test system: SF-268 CNS
run-description: NCI tumour cell line growth inhibition, 48 h
measured-endpoint: TGI (µM)

# compound, qualifier-operator, number
data = [
    ("COc1cc2ccc1NC(=O)N1CCN(CC1)C(=O)Nc1ccc(cc1OC)-c1ccc(c(OC)c1)NC(=O)N1CCN(CC1)C(=O)Nc1ccc-2cc1OC", ">", 100),
    ("O=C(N/N=C(\\CN1CCN(c2cc3[nH]cc(C(=O)O)c(=O)c3cc2F)CC1)c1ccc(Cl)cc1)c1ccncc1", "=", 89.9),
    ("COc1ccc(Nc2nc3cc(C(F)(F)F)ccc3nc2C(=O)O)cc1", "=", 39.5),
    ("CCOC(=O)/C(SC#N)=C(/N)N1CCCC1", ">", 100),
    ("C/C=C/[C@@H](C(=O)OC)N1C(=O)c2ccccc2[C@H]1O", ">", 100),
    ("CC(=O)OC1CC2C(C)(C)C(=O)C=C[C@]2(C)C2CC[C@]3(C)C(OCC(=O)[C@H]3c3ccoc3)[C@]12C (stereo partly specified)", "=", 10.5),
    ("C[Si](C)(c1ccccc1)C1CC(=O)CC(=O)C1", ">", 100),
    ("COc1ccc2nc3cccc([N+](=O)[O-])c3c(NCCNCCO)c2c1", "=", 0.0925),
    ("Nc1ccc(C(=O)NN2C(=O)[C@H](Cl)C2c2ccc(Cl)cc2)cc1 (stereo partly specified)", "=", 1.92),
    ("NS(=O)(=O)c1nnc(NS(=O)(=O)c2ccc(F)cc2)s1", ">", 100),
    ("CC1(O)CCC(C(C)(C)O)CC1 (stereo unspecified)", ">", 100),
    ("C#CCOC(=O)C(N)C(C)O (stereo unspecified)", ">", 100),
    ("[N-]=[N+]=Nc1c(N2CCOCC2)c(Cl)nc2ccccc12", ">", 100),
    ("CCOC(=O)c1cn2c(n1)sc1cc(C)c(C)cc12", "=", 52.7),
    ("[N-]=[N+]=NC1C2CC3C4CC5CC3[C@H](C2)C(C5)C41 (stereo partly specified)", ">", 100),
    ("COc1cc(-c2csc(NC(=O)Nc3ccc(Cl)c(C(F)(F)F)c3)n2)cc(OC)c1OC", "=", 10.4),
    ("CCOC(=O)c1nnn(-c2no[n+]([O-])c2-c2ccc(OC)cc2)c1COc1cccc2cccnc12", "=", 15),
    ("O=C(Nc1ccc([As]=[As]c2ccc(NC(=O)c3ccccc3)cc2)cc1)c1ccccc1 (stereo unspecified)", "=", 1.59),
    ("O=C1CC2(CCC(O)(c3ccccc3)C(C(=O)c3ccccc3)C2)C(=O)c2ccccc2N1 (stereo unspecified)", ">", 100),
    ("COc1ccc(N2CCN(C(=O)c3ccc(C(F)(F)F)nc3Nc3cc(Cl)ccc3C)CC2)cc1", "=", 22.4),
    ("NC1C(O)C(O)C(CO)OC1n1cc(F)c(=O)[nH]c1=O (stereo unspecified)", ">", 100),
]
